- Tested on: glucocorticoid receptor
- protocol-description: Cell permeability in human HeLa cells assessed as glucocorticoid receptor-dependent induction of luciferase activity at 0.6 uM after 40 hrs by GAL4-responsive luciferase reporter gene assay relative to control
- condition-details: HeLa cells with GAL4-responsive luciferase reporter
experimental-endpoint: fold induction at 40 h, 0.6 µM

{"smiles-repr": "CC(=O)NCCNC(=S)NCCSCC(=O)[C@@]1(O)[C@H](C)C[C@H]2[C@@H]3CCC4=CC(=O)C=C[C@]4(C)[C@@]3(F)[C@@H](O)C[C@@]21C", "study-target": "glucocorticoid receptor", "measured-number": 3600}

---

Values of IC50 reported for Glucocorticoid receptor (Homo sapiens, UniProt P04150) appear below.

{"smiles-repr": "C[C@H]1C[C@@H]2[C@H]3CCC4=CC(=O)C=C[C@@]4(C)[C@]3(F)[C@H](O)C[C@@]2(C)[C@]1(O)C(=O)CSCCNC(=S)NCCNC(=O)c1cc(NC(=O)c2cncn2C)cn1C", "IC50": "5.7 nM"}
{"smiles-repr": "C[C@@H]1C[C@H]2[C@@H]3CCC4=CC(=O)C=C[C@]4(C)[C@@]3(F)[C@@H](O)C[C@]2(C)[C@@]1(O)C(=O)CSCCNC(=S)NCCCN(C)CCCNC(=O)CCNC(=O)c1cc(NC(=O)c2cc(NC(=O)c3cc(NC(=O)c4cc(NC(=O)CCCNC(=O)c5nccn5C)cn4C)cn3C)cn2C)cn1C", "IC50": "16 nM"}

---

Recorded fold induction at 40 h, 6 µM, one value per entry.
- System: glucocorticoid receptor
- protocol-description: Cell permeability in human HeLa cells assessed as glucocorticoid receptor-dependent induction of luciferase activity at 6 uM after 40 hrs by GAL4-responsive luciferase reporter gene assay relative to control
- condition-details: HeLa cells with GAL4-responsive luciferase reporter
experimental-endpoint: fold induction at 40 h, 6 µM

{"smiles-repr": "C[C@H]1C[C@@H]2[C@H]3CCC4=CC(=O)C=C[C@@]4(C)[C@]3(F)[C@H](O)C[C@@]2(C)[C@]1(O)C(=O)CSCCNC(=S)NCCNC(=O)c1cc(NC(=O)c2cc(NC(=O)c3nccn3C)cn2C)cn1C", "experimental-endpoint": "fold induction at 40 h, 6 µM", "measured-number": 3400}
{"smiles-repr": "C[C@H]1C[C@@H]2[C@H]3CCC4=CC(=O)C=C[C@@]4(C)[C@]3(F)[C@H](O)C[C@@]2(C)[C@]1(O)C(=O)CSCCNC(=S)NCCNC(=O)c1cc(NC(=O)c2cc(NC(=O)c3cc(NC(=O)c4cc(NC(=O)CCCNC(=O)c5cc(NC(=O)c6cc(NC(=O)c7cc(NC(=O)c8nccn8C)cn7C)cn6C)cn5C)cn4C)cn3C)cn2C)cn1C", "experimental-endpoint": "fold induction at 40 h, 6 µM", "measured-number": 1500}
{"smiles-repr": "CC(=O)NCCC(=O)NCCCN(C)CCCNC(=S)NCCSCC(=O)[C@@]1(O)[C@H](C)C[C@H]2[C@@H]3CCC4=CC(=O)C=C[C@]4(C)[C@@]3(F)[C@@H](O)C[C@@]21C", "experimental-endpoint": "fold induction at 40 h, 6 µM", "measured-number": 600}

---

pIC50: −log10 of the molar value.
The following compounds have recorded pIC50 on Glucocorticoid receptor (Homo sapiens, UniProt P04150).
Sequence (P04150 whole entry): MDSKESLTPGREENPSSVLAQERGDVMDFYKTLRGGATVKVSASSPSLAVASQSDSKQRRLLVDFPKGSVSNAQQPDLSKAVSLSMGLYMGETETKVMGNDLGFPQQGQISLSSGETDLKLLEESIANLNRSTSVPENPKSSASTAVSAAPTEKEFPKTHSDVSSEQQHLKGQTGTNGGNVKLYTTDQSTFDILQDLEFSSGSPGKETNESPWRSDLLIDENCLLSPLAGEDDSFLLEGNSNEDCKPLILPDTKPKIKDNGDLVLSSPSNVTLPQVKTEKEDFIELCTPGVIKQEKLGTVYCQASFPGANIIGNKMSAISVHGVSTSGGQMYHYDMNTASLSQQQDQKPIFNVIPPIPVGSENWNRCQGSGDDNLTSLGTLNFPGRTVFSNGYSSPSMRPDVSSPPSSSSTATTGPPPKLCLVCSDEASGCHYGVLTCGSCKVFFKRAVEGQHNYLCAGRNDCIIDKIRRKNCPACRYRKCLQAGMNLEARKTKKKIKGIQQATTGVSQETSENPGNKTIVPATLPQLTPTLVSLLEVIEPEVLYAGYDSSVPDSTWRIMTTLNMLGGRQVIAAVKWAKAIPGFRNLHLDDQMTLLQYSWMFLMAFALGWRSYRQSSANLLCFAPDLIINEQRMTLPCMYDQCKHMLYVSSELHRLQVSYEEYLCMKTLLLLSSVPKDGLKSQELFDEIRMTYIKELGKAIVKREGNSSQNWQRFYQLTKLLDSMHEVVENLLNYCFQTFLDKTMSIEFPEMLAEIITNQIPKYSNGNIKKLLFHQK
experimental-endpoint: pIC50

{"smiles-repr": "C[C@@H]1C[C@H]2[C@@H]3CCC4=CC(=O)C=C[C@]4(C)[C@@]3(F)[C@@H](O)C[C@]2(C)[C@@]1(O)C(=O)CSCCNC(=S)NCCCN(C)CCCNC(=O)CCNC(=O)c1cc(NC(=O)c2cc(NC(=O)c3cc(NC(=O)c4nccn4C)cn3C)cn2C)cn1C", "experimental-endpoint": "pIC50", "measured-number": 7.70}
{"smiles-repr": "C[C@H]1C[C@@H]2[C@H]3CCC4=CC(=O)C=C[C@@]4(C)[C@]3(F)[C@H](O)C[C@@]2(C)[C@]1(O)C(=O)NCCNC(=O)c1cc(NC(=O)c2cc(NC(=O)c3cc(NC(=O)c4nccn4C)cn3C)cn2C)cn1C", "experimental-endpoint": "pIC50", "measured-number": 6.26}
{"smiles-repr": "C[C@H]1C[C@@H]2[C@H]3CCC4=CC(=O)C=C[C@@]4(C)[C@]3(F)[C@H](O)C[C@@]2(C)[C@]1(O)C(=O)CSCCNC(=S)NCCNC(=O)c1cc(NC(=O)c2cc(NC(=O)c3cc(NC(=O)c4cc(NC(=O)CCCNC(=O)c5cc(NC(=O)c6cc(NC(=O)c7nccn7C)cn6C)cn5C)cn4C)cn3C)cn2C)cn1C", "experimental-endpoint": "pIC50", "measured-number": 7.68}
{"smiles-repr": "CC(=O)NCCC(=O)NCCCN(C)CCCNC(=S)NCCSCC(=O)[C@@]1(O)[C@H](C)C[C@H]2[C@@H]3CCC4=CC(=O)C=C[C@]4(C)[C@@]3(F)[C@@H](O)C[C@@]21C", "experimental-endpoint": "pIC50", "measured-number": 8.03}

---

Below are IC50 values recorded for Glucocorticoid receptor (Homo sapiens).

{"smiles-repr": "C[C@@H]1C[C@H]2[C@@H]3CCC4=CC(=O)C=C[C@]4(C)[C@@]3(F)[C@@H](O)C[C@]2(C)[C@@]1(O)C(=O)CSCCNC(=S)NCCCN(C)CCCNC(=O)CCNC(=O)c1cc(NC(=O)c2nccn2C)cn1C", "IC50 / nM": 8.5}
{"smiles-repr": "C[C@H]1C[C@@H]2[C@H]3CCC4=CC(=O)C=C[C@@]4(C)[C@]3(F)[C@H](O)C[C@@]2(C)[C@]1(O)C(=O)CSCCNC(=S)NCCNC(=O)c1cc(NC(=O)c2cc(NC(=O)c3cc(NC(=O)c4cc(NC(=O)CCCNC(=O)c5cc(NC(=O)c6nccn6C)cn5C)cn4C)cn3C)cn2C)cn1C", "IC50 / nM": 21}
{"smiles-repr": "C[C@H]1C[C@@H]2[C@H]3CCC4=CC(=O)C=C[C@@]4(C)[C@]3(F)[C@H](O)C[C@@]2(C)[C@]1(O)C(=O)CSCCNC(=S)NCCNC(=O)c1cc(NC(=O)c2cc(NC(=O)c3cc(NC(=O)c4cc(NC(=O)c5nccn5C)cn4C)cn3C)cn2C)cn1C", "IC50 / nM": 34}
{"smiles-repr": "C[C@H]1C[C@@H]2[C@H]3CCC4=CC(=O)C=C[C@@]4(C)[C@]3(F)[C@H](O)C[C@@]2(C)[C@]1(O)C(=O)NCCNC(=O)c1cc(NC(=O)c2cc(NC(=O)c3cc(NC(=O)c4cc(NC(=O)CCCNC(=O)c5cc(NC(=O)c6cc(NC(=O)c7cc(NC(=O)c8nccn8C)cn7C)cn6C)cn5C)cn4C)cn3C)cn2C)cn1C", "IC50 / nM": 840}
{"smiles-repr": "C[C@H]1C[C@@H]2[C@H]3CCC4=CC(=O)C=C[C@@]4(C)[C@]3(F)[C@H](O)C[C@@]2(C)[C@]1(O)C(=O)CSCCNC(=S)NCCNC(=O)c1cc(NC(=O)c2cc(NC(=O)c3nccn3C)cn2C)cn1C", "IC50 / nM": 14}
{"smiles-repr": "CC(=O)NCCNC(=S)NCCSCC(=O)[C@@]1(O)[C@H](C)C[C@H]2[C@@H]3CCC4=CC(=O)C=C[C@]4(C)[C@@]3(F)[C@@H](O)C[C@@]21C", "IC50 / nM": 9.8}
{"smiles-repr": "C[C@H]1C[C@@H]2[C@H]3CCC4=CC(=O)C=C[C@@]4(C)[C@]3(F)[C@H](O)C[C@@]2(C)[C@]1(O)C(=O)CSCCNC(=S)NCCNC(=O)c1cc(NC(=O)c2cc(NC(=O)c3cc(NC(=O)c4cc(NC(=O)CCCNC(=O)c5cc(NC(=O)c6cc(NC(=O)c7cc(NC(=O)c8nccn8C)cn7C)cn6C)cn5C)cn4C)cn3C)cn2C)cn1C", "IC50 / nM": 27}
{"smiles-repr": "C[C@H]1C[C@@H]2[C@H]3CCC4=CC(=O)C=C[C@@]4(C)[C@]3(F)[C@H](O)C[C@@]2(C)[C@]1(O)C(=O)CSCCNC(=S)NCCNC(=O)c1cc(NC(=O)c2cc(NC(=O)c3cc(NC(=O)c4cc(NC(=O)CCCNC(=O)c5nccn5C)cn4C)cn3C)cn2C)cn1C", "IC50 / nM": 23}

---

- Tested on: glucocorticoid receptor
- protocol-description: Cell permeability in human MCF7 cells assessed as glucocorticoid receptor-dependent induction of luciferase activity at 1 uM after 40 hrs by GAL4-responsive luciferase reporter gene assay relative to control
- condition-details: MCF7 cells with GAL4-responsive luciferase reporter

{"smiles-repr": "CC(=O)NCCC(=O)NCCCN(C)CCCNC(=S)NCCSCC(=O)[C@@]1(O)[C@H](C)C[C@H]2[C@@H]3CCC4=CC(=O)C=C[C@]4(C)[C@@]3(F)[C@@H](O)C[C@@]21C", "fold induction at 40 h, 1 µM": 1200}
